Reference for the values: PubChem BioAssay (NCI)

System: HCT-116 colon
Procedure text: NCI tumour cell line growth inhibition, 48 h; in the data active = GI50 below about 0.43 µM; inactive = the rest
Outcomes: yes = active, no = inactive

# Mol, Label value
data = [
    ("CCOC(=O)c1c(C)n2c(=O)cc(C)c3c(O)c(O)cc1c32", "no"),
    ("Nc1nc2c(s1)CCc1c-2c(Br)n(Cc2ccccc2)c1Br", "no"),
    ("C/C(=C\\CCc1ccoc1)CC/C=C(\\C)CCCN1CCOCC1", "no"),
    ("COc1cc(-c2nc3ccccc3s2)ccc1NC(=O)COc1ccc(Cl)cc1", "no"),
    ("O=[N+]([O-])c1ccc(Sc2ncnc3nc[nH]c23)c2nonc12", "no"),
    ("Clc1ccc2c(c1)N(CCCN1CCCC1)c1ccccc1S2", "no"),
    ("C[C@H](Nc1ncnc2nc[nH]c12)c1cc2ccc(F)cc2nc1-c1ccccn1", "no"),
    ("Cl.Fc1c[c-]c(-c2ccccn2)c(F)c1.[Pt].c1ccc(P(c2ccccc2)C([PH+](c2ccccc2)c2ccccc2)[PH+](c2ccccc2)c2ccccc2)cc1", "no"),
    ("CCCCCCCCCCCCCC1=NCCN1CCO", "no"),
    ("O=C(c1ccccc1)c1ccc(Oc2ccc([N+](=O)[O-])cc2[N+](=O)[O-])cc1", "no"),
    ("COc1ccc(C(=O)c2cc(OC)c(OC)c(OC)c2)cc1/C=C/C(=O)c1ccc(OC)c(OC)c1", "yes"),
    ("COc1ccc2c(c1)[n+](=O)c(C(=O)c1ccco1)c(C(F)(F)F)n2[O-]", "no"),
]

* * *

System: OVCAR-4 ovarian
Procedure text: NCI tumour cell line growth inhibition, 48 h
Entries and their TGI
Quantity name: TGI

# Compound, Val
data = [
    ("CCN(CC)CCNC(=O)c1cc2cc(NC(=O)c3cc4cc(NC(=O)c5cc6cc(N)ccc6[nH]5)ccc4[nH]3)ccc2[nH]1", "> 100 µM"),
    ("O=[N+]([O-])c1ccccc1N/N=C\\c1c[nH]c2ccccc12", "> 100 µM"),
    ("CN(Cc1cc(Br)cc(Br)c1O)Cc1cc(Br)cc(Br)c1O", "18.9 µM"),
    ("COc1ccc2c(c1)[nH]c(=O)c1c3cc(OC)ccc3cn21", "1.82 µM"),
    ("COc1cc(C2C(C#N)=C(N)OC3=C2CCS(=O)(=O)c2ccc(C)cc23)cc(OC)c1OC (stereo not given)", "> 100 µM"),
    ("O=C(c1ccccc1)c1ccc(-n2c3ccccc3c3ccc4c(c32)C(=O)C=CC4=O)cc1", "31.8 µM"),
    ("O=C1NC(=O)C2(CCCCCC2)N1", "> 100 µM"),
    ("C=CCSC1=N/C(=C\\c2cccs2)C(=O)N1CC=C", "> 100 µM"),
    ("CC(=O)Oc1ccccc1/C=C/C(=O)/C=C/c1ccccc1OC(C)=O", "10.2 µM"),
    ("CO[C@@H]1C=C[C@@]23c4cc5c(cc4C(=O)O[C@H]2CN(C)[C@H]3C1)OCO5", "> 100 µM"),
    ("COc1cc2nc(SCC(=O)Nc3cc(OC)c(OC)c(OC)c3)n(Cc3ccccc3)c(=O)c2cc1OC", "5.56 µM"),
    ("COC1=CCC=C(C[C@@H]2NCCc3cc(OC)c(OC)cc32)C1", "> 100 µM"),
    ("O=S(=O)(O)c1ccc(N=Nc2c(O)ccc3cc(Br)ccc23)cc1", "> 100 µM"),
    ("NNC(=O)CNC(=O)c1ccc(Cl)cc1Cl", "> 100 µM"),
    ("Nc1cc(N2CCCC2)nc(=O)n1-c1ccccc1", "> 100 µM"),
    ("O=C(c1ccccc1)[C@H]1Nc2ccc(Cl)cc2C2c3ccccc3CC21 (stereo not given in full)", "50.9 µM"),
    ("CO/N=C(\\C(=O)N(C)n1cnnc1)c1csc(NC(c2ccccc2)(c2ccccc2)c2ccccc2)n1", "> 10 µM"),
    ("C=C[C@@H]1C[C@]2(C(=O)OC)Cc3nc4ccccc4nc3CC(C(=O)OC)=C2O1", "> 100 µM"),
    ("COc1ccc(OCc2ccc3nc(-c4ccccc4)c(Cl)nc3c2)cc1", "95.4 µM"),
    ("COc1cccc(/C=N/[N-]C(N)=O)c1[O-].[Ni+2].[OH3+].c1ccc(-c2ccccn2)nc1", "> 100 µM"),
    ("CC1SC2=NC3=C(c4ccccc4C3=O)C(c3ccc(Cl)cc3)N2C1=O (stereo not given)", "> 100 µM"),
    ("CC1C[C@H](C)CC(C(O)CC2CC(=O)N(Cc3ccccc3)C(=O)C2)C1O (stereo not given in full)", "> 100 µM"),
    ("CCOC(=O)C1C2CCC(C2)C1(CCl)C(=O)OCC (stereo not given)", "> 100 µM"),
    ("CC(C)(C)Nc1noc(=O)n1C(C)(C)C", "> 100 µM"),
    ("CCc1c(Cc2[nH]c(Cc3[nH]c(C=O)c(C)c3CC)c(CC)c2CC)[nH]c(C=O)c1C", "> 1 µM"),
    ("CNCc1cc(OC)ccc1-c1ccc(OC)c(OC)c1OC", "> 100 µM"),
    ("COc1ccc2c(CN3CCC(C(=O)O)CC3)cc3cc4c(cc3c2c1)OCO4", "> 100 µM"),
    ("Cc1ccc(S(=O)(=O)N2CCSCCN(S(=O)(=O)c3ccc(C)cc3)CCN(S(=O)(=O)c3ccc(C)cc3)CC2)cc1", "> 100 µM"),
    ("Clc1cc(Cl)cc(C2ON=C(c3ccccc3)N2C23CC4CC(CC(C4)C2)C3)c1 (stereo not given)", "> 10 µM"),
    ("O=C1CCC2CC(C(=O)c3ccccc3)CCC2CN1 (stereo not given) (tested in a mixture with another compound)", "> 100 µM"),
    ("C=C(C)[C@@]1(OC(=O)c2cc([N+](=O)[O-])cc([N+](=O)[O-])c2)C[C@@H]2CCCC[C@@H]21", "> 100 µM"),
    ("Cc1ccc(Nc2c(C#N)[n+]([O-])c3cc(Cl)ccc3[n+]2[O-])cc1", "> 100 µM"),
    ("COc1ccc(C(=O)COC(=O)[C@H](C[Se][Se]C[C@H](NC(=O)c2ccc(Br)cc2F)C(=O)OCC(=O)c2ccc(OC)cc2)NC(=O)c2ccc(Br)cc2F)cc1", "3.1 µM"),
    ("CC(=O)c1cc(C(=O)c2ccc3c(c2)Sc2ccccc2N3)c2c(C)cc(C)cn12", "> 100 µM"),
    ("CC1=C/C(=N\\O)C(C(O)(C(F)(F)F)C(F)(F)F)C(C)(C)C1 (stereo not given)", "> 10 µM"),
    ("COC(=O)[C@]12CC[C@@H](C)[C@H](C)[C@@H]1C1=CC[C@@H]3[C@@]4(C)C(C=O)=C[C@@](C)(COC(C)=O)C4=CC[C@@]3(C)[C@]1(C)CC2", "18.3 µM"),
    ("Nc1nc(OCc2cc(Br)cs2)c2[nH]cnc2n1", "> 100 µM"),
    ("COC(=O)[C@@H]1CN(C(C)=O)C(=O)N1C(=O)OCc1ccccc1", "> 100 µM"),
    ("O=C(O)c1cc(/C=C/c2cc(O)ccc2O)ccc1O", "> 10 µM"),
    ("CCCCC(Sc1cc(Cl)c(C)cc1S(=O)(=O)Nc1n[nH]c(N)n1)C(=O)OC (stereo not given)", "> 10 µM"),
]
